Experiment: Permeability of compounds in Caco-2 assay (bi-directional transport)
Type: in vitro ADME
Conditions: human, pH 7.4; Papp(BA)/Papp(AB), Caco-2
Measured Attribute: efflux ratio at 2 h, 2 μM

[[record]]
smiles_representation = "CC(C)C(=O)OC[C@H]1O[C@@H](n2ccc(NO)nc2=O)[C@@H]2OC(=O)O[C@@H]21"
value_observed = 3.61


====

Assay: Permeability of compounds in Caco-2 assay (bi-directional transport)
Type: in vitro ADME
Conditions: human, pH 7.4; Caco-2, binning criteria Low/Moderate/High; read-out: Papp (permeability bin)
Protocol: Caco-2 cells purchased from ATCC were seeded onto […] (PET) in 96-well Corning Insert plates at 1×10^5 cells/cm2, and refreshed medium every 4˜5 days until to the 21st to 28th day for confluent cell monolayer formation. The transport buffer in the study was HBSS with 10.0 mM HEPES at pH 7.40±0.05. Test compound was tested at 2.00 μM bi-directionally in duplicate. […]
Measured Attribute: Papp at 2 h, 2 μM

[[record]]
smiles_representation = "CC(C)C(=O)OC[C@H]1O[C@@H](n2ccc(NO)nc2=O)[C@@H]2OC(=O)O[C@@H]21"
measured_attribute = "Papp at 2 h, 2 μM"
value_observed = "2 to 20 ×10⁻⁶ cm/s"

